Source: patent US10450378B2

tested on: Jurkat cell line; experiment: Cytotoxicity of compounds of Formula I, Example 3 (CellTiter-Glo); assay type: cell-based, Human; details: Homo sapiens, 72 h, 3 days incubation, CellTiter-Glo, read-out: EC50
The entries below come with measured EC50 values attached.

{"Molecule": "CC[C@H](C)[C@@H]([C@@H](CC(=O)N1CCC[C@H]1[C@H](OC)[C@@H](C)C(=O)NS(=O)(=O)Cc1ccc(NC(=O)C(F)(F)F)cc1)OC)N(C)C(=O)[C@@H](NC(=O)[C@H](C(C)C)N(C)C)C(C)C", "EC50 / nM": 29.9}
{"Molecule": "CC[C@H](C)[C@@H]([C@@H](CC(=O)N1CCC[C@H]1[C@H](OC)[C@@H](C)C(=O)N[C@@H](Cc1ccccc1)C(=O)NS(=O)(=O)c1ccc(N)cc1)OC)N(C)C(=O)[C@@H](NC(=O)[C@H](C(C)C)N(C)C)C(C)C", "EC50 / nM": 52}
{"Molecule": "CC[C@H](C)[C@@H]([C@@H](CC(=O)N1CCC[C@H]1[C@H](OC)[C@@H](C)C(=O)NS(=O)(=O)c1ccc(N)cc1)OC)N(C)C(=O)[C@@H](NC(=O)[C@H](C(C)C)N(C)C)C(C)C", "EC50 / nM": 16.8}
{"Molecule": "CC[C@H](C)[C@@H]([C@@H](CC(=O)N1CCC[C@H]1[C@H](OC)[C@@H](C)C(=O)NS(=O)(=O)c1ccc(NC(=O)C(F)(F)F)cc1)OC)N(C)C(=O)[C@@H](NC(=O)[C@H](C(C)C)N(C)C)C(C)C", "EC50 / nM": 18.1}

###

system: Human Pancreatic cell line BxPC-3; experiment: Cellular cytotoxicity of compounds of Formula I, Example 3.1; type: cell-based; conditions: five nights, CellTiter-Glo
The entries below come with measured EC50 values attached.

{"Molecule": "CC[C@H](C)[C@@H]([C@@H](CC(=O)N1CCC[C@H]1[C@H](OC)[C@@H](C)C(=O)NS(=O)(=O)c1ccc(CNC(=O)C(F)(F)F)cc1)OC)N(C)C(=O)[C@@H](NC(=O)[C@H](C(C)C)N(C)C)C(C)C", "Study system": "Human Pancreatic cell line BxPC-3", "Value unit": "nM", "Comparator": ">", "EC50": 100}
{"Molecule": "CC[C@H](C)[C@@H]([C@@H](CC(=O)N1CCC[C@H]1[C@H](OC)[C@@H](C)C(=O)NS(=O)(=O)c1ccc(N)cc1)OC)N(C)C(=O)[C@@H](NC(=O)[C@H](C(C)C)N(C)C)C(C)C", "Study system": "Human Pancreatic cell line BxPC-3", "Value unit": "nM", "Comparator": "=", "EC50": 18.2}
{"Molecule": "CC[C@H](C)[C@@H]([C@@H](CC(=O)N1CCC[C@H]1[C@H](OC)[C@@H](C)C(=O)NS(=O)(=O)c1ccc(N)cc1)OC)N(C)C(=O)[C@@H](NC(=O)[C@@H](NC)C(C)C)C(C)C", "Study system": "Human Pancreatic cell line BxPC-3", "Value unit": "nM", "Comparator": ">", "EC50": 300}
{"Molecule": "CC[C@H](C)[C@@H]([C@@H](CC(=O)N1CCC[C@H]1[C@H](OC)[C@@H](C)C(=O)NS(=O)(=O)c1ccc(NC(=O)C(F)(F)F)cc1)OC)N(C)C(=O)[C@@H](NC(=O)[C@H]1CCCCN1C(C)C)C(C)C", "Study system": "Human Pancreatic cell line BxPC-3", "Value unit": "nM", "Comparator": "=", "EC50": 14.5}

###

system: Human Pancreatic cell line BxPC-3; experiment: Cellular cytotoxicity of compounds of Formula I, Example 3.1; format: cell-based; conditions: five nights, CellTiter-Glo

{"Molecule": "CC[C@H](C)[C@@H]([C@@H](CC(=O)N1CCC[C@H]1[C@H](OC)[C@@H](C)C(=O)N[C@@H](Cc1ccccc1)C(=O)NS(=O)(=O)Cc1ccc(CNC(=O)C(F)(F)F)cc1)OC)N(C)C(=O)[C@@H](NC(=O)[C@H](C(C)C)N(C)C)C(C)C [Compound 27]", "Value unit": "nM", "Comparator": "=", "EC50": 19}
{"Molecule": "CC[C@H](C)[C@@H]([C@@H](CC(=O)N1CCC[C@H]1[C@H](OC)[C@@H](C)C(=O)NS(=O)(=O)Cc1ccc(CNC(=O)C(F)(F)F)cc1)OC)N(C)C(=O)[C@@H](NC(=O)[C@H](C(C)C)N(C)C)C(C)C [Compound 25]", "Value unit": "nM", "Comparator": ">", "EC50": 100}
{"Molecule": "CC[C@H](C)[C@@H]([C@@H](CC(=O)N1CCC[C@H]1[C@H](OC)[C@@H](C)C(=O)N[C@@H](Cc1ccccc1)C(=O)NS(=O)(=O)c1ccc(CNC(=O)C(F)(F)F)cc1)OC)N(C)C(=O)[C@@H](NC(=O)[C@H](C(C)C)N(C)C)C(C)C [Compound 23]", "Value unit": "nM", "Comparator": "=", "EC50": 17.2}
{"Molecule": "CC[C@H](C)[C@@H]([C@@H](CC(=O)N1CCC[C@H]1[C@H](OC)[C@@H](C)C(=O)N[C@@H](Cc1ccccc1)C(=O)NS(=O)(=O)c1ccc(CN)cc1)OC)N(C)C(=O)[C@@H](NC(=O)[C@H](C(C)C)N(C)C)C(C)C [Compound 24]", "Value unit": "nM", "Comparator": ">", "EC50": 100}
{"Molecule": "CC[C@H](C)[C@@H]([C@@H](CC(=O)N1CCC[C@H]1[C@H](OC)[C@@H](C)C(=O)NS(=O)(=O)c1ccc(N)cc1)OC)N(C)C(=O)[C@@H](NC(=O)[C@@H](NC)C(C)(C)c1ccccc1)C(C)C [Compound 19]", "Value unit": "nM", "Comparator": "=", "EC50": 10.2}
{"Molecule": "CC[C@H](C)[C@@H]([C@@H](CC(=O)N1CCC[C@H]1[C@H](OC)[C@@H](C)C(=O)NS(=O)(=O)c1ccc(C(=O)OC)cc1)OC)N(C)C(=O)[C@@H](NC(=O)[C@H](C(C)C)N(C)C)C(C)C [Compound 34]", "Value unit": "nM", "Comparator": ">", "EC50": 300}
{"Molecule": "CC[C@H](C)[C@@H]([C@@H](CC(=O)N1CCC[C@H]1[C@H](OC)[C@@H](C)C(=O)NS(=O)(=O)c1ccc(N)cc1)OC)N(C)C(=O)[C@@H](NC(=O)C(C)(C)N)C(C)C [Compound 17]", "Value unit": "nM", "Comparator": ">", "EC50": 100}
{"Molecule": "CC[C@H](C)[C@@H]([C@@H](CC(=O)N1CCC[C@H]1[C@H](OC)[C@@H](C)C(=O)NS(=O)(=O)c1ccc(N)cc1)OC)N(C)C(=O)[C@@H](NC(=O)[C@H]1CCCCN1C(C)C)C(C)C [Compound 16]", "Value unit": "nM", "Comparator": "=", "EC50": 17}
{"Molecule": "CC[C@H](C)[C@@H]([C@@H](CC(=O)N1CCC[C@H]1[C@H](OC)[C@@H](C)C(=O)N[C@@H](Cc1ccccc1)C(=O)NS(=O)(=O)Cc1ccc(CN)cc1)OC)N(C)C(=O)[C@@H](NC(=O)[C@H](C(C)C)N(C)C)C(C)C [Compound 28]", "Value unit": "nM", "Comparator": ">", "EC50": 100}
